# assay-method-text: Hydrolysis Assay - Condition 1 (SGF)
# Format: physicochemical
# cond: SGF with pepsin pH 1.5, 37° C., 0.5 mM, 4 h
measurement-type: Condition 1 Conversion (%)

Look over these answered cases.
CCN(C)C(=O)OC1=C[C@@H]2N(C)CC[C@]2(c2ccc(OC)c(OC)c2)CC1 [Compound 326]	0%
COc1ccc([C@@]23CCC(OC(=O)N4CCN(C)CC4)=C[C@@H]2N(C)CC3)cc1OC [Compound 327]	0%

Summary for this compound, COc1ccc([C@@]23CCC(OP4(=O)OCC(C)(C)CO4)=C[C@@H]2N(C)CC3)cc1OC [Compound 323] : Condition 1 Conversion (%) is 0%

Measured Condition 1 Conversion (%), COc1ccc([C@@]23CCC(OC(=O)N(C)C)=C[C@@H]2N(C)CC3)cc1OC [Compound 324] : 0%

The reported Condition 1 Conversion (%) of the compound COc1ccc([C@@]23CCC(OC(=O)OC(C)(C)C)=C[C@@H]2N(C)CC3)cc1OC [Compound 358] was 100%
